- measurement description: Timed organ biodistribution of [^64Cu]Cu-DOTATATE by ex vivo gamma counting
- Format: in vivo, mice
- cond: mouse, fat, intravenous, 1.85 MBq, total radioactivity; female Apoe^-/- mice 12 weeks on Western Diet, 60 min after injection, median (IQR), N=3-8; read-out: Tissue radioactivity, fat
metric: tissue uptake at 1 h (%ID/g)
Just the number in %ID/g, nothing appended.

Query string: Given the entry C[C@@H](O)[C@H](NC(=O)[C@@H]1CSSC[C@H](NC(=O)[C@@H](Cc2ccccc2)NC(=O)CN2CCN(CC(=O)O)CCN(CC(=O)O)CCN(CC(=O)O)CC2)C(=O)N[C@@H](Cc2ccc(O)cc2)C(=O)N[C@H](Cc2c[nH]c3ccccc23)C(=O)N[C@@H](CCCCN)C(=O)N[C@@H]([C@@H](C)O)C(=O)N1)C(=O)O [[^64Cu]Cu-DOTATATE, metal not drawn] , report its measured tissue uptake at 1 h.
Result string: 0.2

---

- measurement description: Timed organ biodistribution of [^64Cu]Cu-DOTATATE by ex vivo gamma counting
- Format: in vivo, mice
- cond: mouse, muscle, intravenous, 1.85 MBq, total radioactivity; female Apoe^-/- mice 12 weeks on Western Diet, 5 min after injection, median (IQR), N=3-8; read-out: Tissue radioactivity, muscle
metric: tissue uptake at 5 min (%ID/g)
Just the number in %ID/g, nothing appended.

Query string: Given the entry C[C@@H](O)[C@H](NC(=O)[C@@H]1CSSC[C@H](NC(=O)[C@@H](Cc2ccccc2)NC(=O)CN2CCN(CC(=O)O)CCN(CC(=O)O)CCN(CC(=O)O)CC2)C(=O)N[C@@H](Cc2ccc(O)cc2)C(=O)N[C@H](Cc2c[nH]c3ccccc23)C(=O)N[C@@H](CCCCN)C(=O)N[C@@H]([C@@H](C)O)C(=O)N1)C(=O)O [[^64Cu]Cu-DOTATATE, metal not drawn] , report its measured tissue uptake at 5 min.
Result string: 1.4

---

- measurement description: Timed organ biodistribution of [^64Cu]Cu-DOTATATE by ex vivo gamma counting
- Type: in vivo, mice
- cond: mouse, spleen, intravenous, 1.85 MBq, total radioactivity; female C57BL/6 mice, 30 min after injection, median (IQR), N=3-7; read-out: Tissue radioactivity, spleen
metric: tissue uptake at 0.5 h (%ID/g)
Just the number in %ID/g, nothing appended.

Query string: Given the entry C[C@@H](O)[C@H](NC(=O)[C@@H]1CSSC[C@H](NC(=O)[C@@H](Cc2ccccc2)NC(=O)CN2CCN(CC(=O)O)CCN(CC(=O)O)CCN(CC(=O)O)CC2)C(=O)N[C@@H](Cc2ccc(O)cc2)C(=O)N[C@H](Cc2c[nH]c3ccccc23)C(=O)N[C@@H](CCCCN)C(=O)N[C@@H]([C@@H](C)O)C(=O)N1)C(=O)O [[^64Cu]Cu-DOTATATE, metal not drawn] , report its measured tissue uptake at 0.5 h.
Result string: 0.7

---

- measurement description: Timed organ biodistribution of [^64Cu]Cu-DOTATATE by ex vivo gamma counting
- Assay type: in vivo, mice
- cond: mouse, kidneys, intravenous, 1.85 MBq, total radioactivity; female C57BL/6 mice, 60 min after injection, median (IQR), N=3-7; read-out: Tissue radioactivity, kidneys
metric: tissue uptake at 1 h (%ID/g)
Just the number in %ID/g, nothing appended.

Query string: Given the entry C[C@@H](O)[C@H](NC(=O)[C@@H]1CSSC[C@H](NC(=O)[C@@H](Cc2ccccc2)NC(=O)CN2CCN(CC(=O)O)CCN(CC(=O)O)CCN(CC(=O)O)CC2)C(=O)N[C@@H](Cc2ccc(O)cc2)C(=O)N[C@H](Cc2c[nH]c3ccccc23)C(=O)N[C@@H](CCCCN)C(=O)N[C@@H]([C@@H](C)O)C(=O)N1)C(=O)O [[^64Cu]Cu-DOTATATE, metal not drawn] , report its measured tissue uptake at 1 h.
Result string: 6.1
